molecular target: C-C chemokine receptor type 3 (Homo sapiens) (UniProt P51677); assay: In vitro percent increase over basal binding of [35S]-GTP-gamma S against C-C chemokine receptor type 3 at 10 uM; assay type: functional
Sequence (P51677 whole entry): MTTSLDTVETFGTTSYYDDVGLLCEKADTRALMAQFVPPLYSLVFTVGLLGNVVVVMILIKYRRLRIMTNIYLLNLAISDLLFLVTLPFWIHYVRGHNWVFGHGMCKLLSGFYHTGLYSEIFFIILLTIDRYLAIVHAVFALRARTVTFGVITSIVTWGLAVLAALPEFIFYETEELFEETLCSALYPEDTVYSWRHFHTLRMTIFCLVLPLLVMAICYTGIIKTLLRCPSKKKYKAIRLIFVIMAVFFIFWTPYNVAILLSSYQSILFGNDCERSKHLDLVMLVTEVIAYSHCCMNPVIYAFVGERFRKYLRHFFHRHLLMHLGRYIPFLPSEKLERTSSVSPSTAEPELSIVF
reported_metric: Emax (%)

Answered cases to consult:
compound="O=C(NCC1CCCN(C2CCN(CCc3ccc(Cl)c(Cl)c3)CC2)C1)c1ccc2ncccc2c1 (stereo unspecified)" reported_metric=Emax numeric_value=2
compound="O=C(NCC1CCCN(C2CCN(Cc3cc(Cl)cc(Cl)c3)CC2)C1)c1ccc2ncccc2c1 (stereo unspecified)" reported_metric=Emax numeric_value=45
compound="O=C(NCC1CCCN(C2CCN(Cc3ccc(Cl)c(Cl)c3)CC2)C1)c1ccc2ncccc2c1 (stereo unspecified)" reported_metric=Emax numeric_value=-7

A = O=C(NCC1CCCN(C2CCN(Cc3ccc(Cl)cc3)CC2)C1)c1ccc2ncccc2c1 (stereo unspecified)
B = O=C(NCC1CCCN(C2CCN(Cc3cc(Cl)ccc3Cl)CC2)C1)c1ccc2ncccc2c1 (stereo unspecified)
C = CC(c1ccc(Cl)c(Cl)c1)N1CCC(N2CCCC(CNC(=O)c3ccc4ncccc4c3)C2)CC1 (stereo unspecified)
### Prompt Put these in order: smallest Emax first, largest last. # format: label list in the order the request specifies
### Response C, A, B
(C: -12%, A: -8%, B: 45%)

Source: ChEMBL document CHEMBL1139618
